- Test system: OVCAR-5 ovarian
- experimentSummary: NCI tumour cell line growth inhibition, 48 h
Reported TGI values for the following compounds.

[[record]]
compound = "NC1=C(c2nc(-c3ccccc3)cs2)C(c2ccco2)c2c(c3ccccc3oc2=O)O1 (stereo not drawn)"
assayvalue = "> 100 µM"

[[record]]
compound = "COc1ccc(NC(=S)c2ccc([N+](=O)[O-])o2)cc1"
assayvalue = "9.53 µM"


Can you share its TGI? I mean this compound: FC(F)(F)c1cccc(CNC2CCN(CCc3ccccc3)CC2)c1
> 100 µM

Can you share its TGI? I mean this compound: Cc1cnc2[nH]c(-c3cccc4ccccc34)cc(=O)c2c1
> 100 µM

Can you share its TGI? I mean this compound: S=c1[nH]nc(Cn2c3ccc(Br)cc3c3nc4ccccc4nc32)o1
> 100 µM

Can you share its TGI? I mean this compound: COC(=O)C1=C(OC)C(=P2(c3ccccc3)CC(c3ccccc3)=C2c2ccccc2)C(C(=O)OC)=C1C(=O)OC (stereo not drawn)
> 100 µM

Can you share its TGI? I mean this compound: COc1ccc2cc3n(c(=O)c2c1)CCc1c-3cc(OC)c(OC)c1OC
> 100 µM

* * *

- System: LOX IMVI melanoma
- experimentSummary: NCI tumour cell line growth inhibition, 48 h; in the data active = GI50 below about 0.43 µM; inactive = the rest
Respond only with the outcome that fits, drawn from 1.0 = active, 0.0 = inactive

Here's what some known entries look like.
[[record]]
molecule = "COc1cc2c3c(n(CCCN)c(=O)c2cc1OC)-c1ccc(N)cc1C3=O"
targetentity = "LOX IMVI melanoma"
assignedcategory = 1.0

[[record]]
molecule = "O=C(O)CSc1cc(NS(=O)(=O)c2ccc(Br)cc2)c2ccccc2c1O"
targetentity = "LOX IMVI melanoma"
assignedcategory = 0.0


For COc1cc(NC(=O)COc2ccccc2)c(C(N)=O)cc1OC , what call appears in the results of this test?
0.0

For N#CC1=C(N)Oc2c(ccc3ccccc23)C1c1cc2ccccc2n2nnnc12 (centres undefined) , what call appears in the results of this test?
0.0

For COc1cc2c(cc1C)NC(=O)/C2=C\c1ccc(Oc2ccccc2)cc1 , what call appears in the results of this test?
0.0

For CCCCCCCCCCN=C(N)c1ccc(N2CCN(c3ccc(C(N)=NCCCCCCCCCC)cc3)CC2)cc1 , what call appears in the results of this test?
0.0

For CN(c1ccccc1)c1c2ccccc2nc2[nH]c3ccccc3c12 , what call appears in the results of this test?
0.0

For CCCCCCCCCCCCOC1C(C(COC2OC(C(O)CO)C3OC(C)(C)OC23)OC(=O)Nc2ccccc2)OC2OC(C)(C)OC21 (centres undefined) , what call appears in the results of this test?
0.0

For CC(=O)O[C@H]1C[C@@H]2[C@@]3(C)CC[C@H]4C[C@@]4(C)[C@@H]3CC[C@@]2(C)C2=CCC3=C(COC3=O)[C@]21C , what call appears in the results of this test?
0.0

* * *

- System: HCT-15 colon
- experimentSummary: NCI tumour cell line growth inhibition, 48 h; in the data active = GI50 below about 0.43 µM; inactive = the rest
Respond only with the outcome that fits, drawn from class 1 (active), class 0 (inactive)

For O=C1NC(=NCc2cccs2)O/C1=C\c1ccc2ncccc2c1 , what call appears in the results of this test?
class 0

For CCCCCCCCCCN=C(N)c1ccc(N2CCN(c3ccc(C(N)=NCCCCCCCCCC)cc3)CC2)cc1 , what call appears in the results of this test?
class 0

For CNCc1cccc2c1OCCOCCOCCNS(=O)(=O)c1ccc(cc1)-c1cnc(N)c(n1)C(=O)N2 , what call appears in the results of this test?
class 0

For CCCCCCCCCCCCOC1C(C(COC2OC(C(O)CO)C3OC(C)(C)OC23)OC(=O)Nc2ccccc2)OC2OC(C)(C)OC21 (stereo not given) , what call appears in the results of this test?
class 0

For C#CCCCCCC(=O)N[C@H]1C=C[C@@H]2/C=C(C)/C=C/[C@@H](C)[C@H]([C@H](C)[C@H](O)[C@@H](C)NC(C)=O)OC(=O)/C=C/C=C(C)\C=C\[C@]2(C)C1 , what call appears in the results of this test?
class 1

* * *

- System: OVCAR-8 ovarian
- experimentSummary: NCI tumour cell line growth inhibition, 48 h
Reported TGI values for the following molecules.

Here is how some molecules turned out for TGI.
[[record]]
molecule = "O=C(OC1OC2COC(=O)c3cc(O)c(O)c(O)c3-c3c(cc(O)c(O)c3O)C(=O)OC3C2OC(=O)[C@@]24CC(=O)[C@@](O)(OC25C(=O)O[C@H]2[C@@H](O)CO[C@@]25O)C2(O)Oc5c(O)c(O)cc(c5C24)C(=O)OC13)c1cc(O)c(O)c(O)c1 (some centres undefined)"
targetentity = "OVCAR-8 ovarian"
experimentalreadout = "TGI"
assayvalue = "> 100 µM"

[[record]]
molecule = "CC(C)(C)c1ccc(OCCOCCOc2ccc(C(C)(C)C)cc2S(N)(=O)=O)c(S(N)(=O)=O)c1"
targetentity = "OVCAR-8 ovarian"
experimentalreadout = "TGI"
assayvalue = "> 100 µM"


Give the reported TGI for O=C(/C=C(\[O-])c1ccccc1)CCCCCCC(=O)/C=C(\[O-])c1ccccc1.O=C(/C=C(\[O-])c1ccccc1)CCCCCCC(=O)/C=C(\[O-])c1ccccc1.O=C(/C=C(\[O-])c1ccccc1)CCCCCCC(=O)/C=C(\[O-])c1ccccc1.[Y+3].[Y+3] (system: OVCAR-8 ovarian).
> 50 µM

Give the reported TGI for Cc1cn([C@H]2C[C@@H](N3C(=O)c4ccccc4C3=O)[C@@H](CO[Si](C)(C)C(C)(C)C)O2)c(=O)[nH]c1=O (system: OVCAR-8 ovarian).
> 100 µM

* * *

- System: CCRF-CEM leukemia
- experimentSummary: NCI tumour cell line growth inhibition, 48 h; in the data active = GI50 below about 0.43 µM; inactive = the rest
Respond only with the outcome that fits, drawn from YES for active, NO for inactive

For CC(=O)O[C@H]1C[C@@H]2[C@@]3(C)CC[C@H]4C[C@@]4(C)[C@@H]3CC[C@@]2(C)C2=CCC3=C(COC3=O)[C@]21C , what call appears in the results of this test?
NO

For COc1cc2c(Oc3ccc(-c4cnc(Nc5ccc(F)cc5)n(C)c4=O)cc3F)ccnc2cc1OCCCN1CCOCC1 , what call appears in the results of this test?
NO

For C=CCN(CC=C)Cc1c[nH]c2ccccc12 , what call appears in the results of this test?
NO

For COc1cc2c3c(n(CCCN)c(=O)c2cc1OC)-c1ccc(N)cc1C3=O , what call appears in the results of this test?
YES

For O=C1NC(=O)C2C3C=CC(C12)C1C2C(=O)NC(=O)C2C31 (centres undefined) , what call appears in the results of this test?
NO

For O=S(=O)(Nc1ccccc1)c1ccc(C2CC3(Cl)C(Cl)=C(Cl)C2(Cl)C3(Cl)Cl)cc1 (centres undefined) , what call appears in the results of this test?
NO

For COc1cc2c(cc1C)NC(=O)/C2=C\c1ccc(Oc2ccccc2)cc1 , what call appears in the results of this test?
NO

For C/C(=C\c1csc(C)n1)[C@@H]1C[C@@H]2O[C@]2(C)CCC[C@H](C)[C@H](O)[C@@H](C)C(=O)C(C)(C)[C@@H](O)CC(=O)N1 , what call appears in the results of this test?
YES

For CC[C@]12C=CCN3CC[C@@]4(c5ccc(OC)cc5N(C)[C@H]4[C@@](O)(C(=O)OC)[C@@H]1OC(=O)CCCN1CCN(CCCC(=O)O[C@@H]4[C@]5(CC)C=CCN6CC[C@@]7(c8ccc(OC)cc8N(C)[C@H]7[C@@]4(O)C(=O)OC)[C@@H]65)CC1)[C@@H]32 , what call appears in the results of this test?
NO

* * *

- Tested on: A498 renal
- experimentSummary: NCI tumour cell line growth inhibition, 48 h
experimentalReadout: TGI

Can you share its TGI? I mean this compound: COc1cc(CCN)c(OC)c(OC)c1
> 100 µM

Can you share its TGI? I mean this compound: N#CC1=C(S)N(C2OC(CO)C(O)C(O)C2O)C(c2ccccc2)=CC1c1ccco1 (stereo not drawn)
> 100 µM

Can you share its TGI? I mean this compound: CN(C)[C@@H]1C(=O)C(C(=O)NCc2nc3[nH]cnc(=S)c3[nH]2)=C(O)[C@@]2(O)C(=O)C3=C(O)c4c(O)cccc4[C@@](C)(O)[C@H]3C[C@@H]12
> 100 µM

Can you share its TGI? I mean this compound: CCOC(=O)c1nc2ccc(C(F)(F)F)cc2nc1Oc1ccc(OC)cc1
> 100 µM

Can you share its TGI? I mean this compound: N#CC1=C(N)Oc2c(ccc3ccccc23)C1c1cc2ccccc2n2nnnc12 (stereo not drawn)
> 100 µM

Can you share its TGI? I mean this compound: COc1cc2c(cc1OCCN1CCN(CCN3C(=O)c4cccc5cccc(c45)C3=O)CC1)N=C[C@@H]1CCCN1C2=O
40.4 µM

Can you share its TGI? I mean this compound: COc1ccc(NC(=S)c2ccc([N+](=O)[O-])o2)cc1
29.1 µM

Can you share its TGI? I mean this compound: NC1=C(c2nc(-c3ccccc3)cs2)C(c2ccco2)c2c(c3ccccc3oc2=O)O1 (stereo not drawn)
> 100 µM

Can you share its TGI? I mean this compound: O[C@@H]1[C@H](OC2c3ccccc3-c3ccccc32)[C@H](OCc2ccccc2)[C@@H]2OC[C@H]1O2
> 100 µM

Can you share its TGI? I mean this compound: CN(c1ccccc1)c1c2ccccc2nc2[nH]c3ccccc3c12
5.32 µM
